# Assayed target: T1, preformed binary complex of IL-18 wild type and un-tagged IL-18Rα wild type extracellular domain (human, UniProt Q14116 37-193; Q13478 20-329)
# T1 construct: interleukin-18, human, mature IL-18 (residues 1-157); numbers count on: the mature protein; IL-18 receptor alpha, human, extracellular domains, residues 20-329 of NM_003855; also called IL-18 WT/IL-18Rα WT complex; IL-18/IL-18Rα; source: IL-18: E. coli BL21(DE3), purified; IL-18Rα: silkworm larvae haemolymph, purified; un-tagged IL-18Rα saturated with 500 nM IL-18
# Assay protocol: SPR; BIAcore 3000, 25 °C; C-terminal 6xHis IL-18Rβ (wild type or mutant) immobilised at about 100 RU on a Ni-NTA sensor chip; un-tagged IL-18Rα saturated with 500 nM IL-18 (preformed binary complex) injected as analyte in HBS-P; triplicate
# Assay context: both partners purified
Record form. Attribute: kon. Fill in for each entry.

Name the recorded kon of the item human IL-18 receptor beta extracellular domain (residues 15-356), C-terminal 6xHis, K313A (receptor, UniProt O95256-1 15-356, looked up, IL-18 receptor beta, human, extracellular domains, residues 15-356 of NM_003853; also called IL-18Rβ K313A; source: silkworm (B. mori) larvae, BmNPV bacmid, haemolymph, purified (ion exchange, Ni-NTA, gel filtration); not shown: 6xHis, C-terminal, kept) ERIKGFNISGCSTKKLLWTYSTRSEEEFVLFCDLPEPQKSHFCHRNRLSPKQVPEHLPFMGSNDLSDVQWYQQPSNGDPLEDIRKSYPHIIQDKCTLHFLTPGVNNSGSYICRPKMIKSPYDVACCVKMILEVKPQTNASCEYSASHKQDLLLGSTGSISCPSLSCQSDAQSPAVTWYKNGKLLSVERSNRIVVDEVYDYHQGTYVCDYTQSDTVSSWTVRAVVQVRTIVGDTKLKPDILDPVEDTLEVELGKPLTISCKARFGFERVFNPVIKWYIKDSDLEWEVSVPEAKSIKSTLADEIIERNIILEKVTQRDLRRKFVCFVQNSIGNTTQSVQLKEKR in your answer.
103000 M⁻¹ s⁻¹

Input human IL-18 receptor beta extracellular domain (residues 15-356), C-terminal 6xHis, Y214A (receptor, UniProt O95256-1 15-356, looked up, IL-18 receptor beta, human, extracellular domains, residues 15-356 of NM_003853; also called IL-18Rβ Y214A; source: silkworm (B. mori) larvae, BmNPV bacmid, haemolymph, purified (ion exchange, Ni-NTA, gel filtration); not shown: 6xHis, C-terminal, kept) ERIKGFNISGCSTKKLLWTYSTRSEEEFVLFCDLPEPQKSHFCHRNRLSPKQVPEHLPFMGSNDLSDVQWYQQPSNGDPLEDIRKSYPHIIQDKCTLHFLTPGVNNSGSYICRPKMIKSPYDVACCVKMILEVKPQTNASCEYSASHKQDLLLGSTGSISCPSLSCQSDAQSPAVTWYKNGKLLSVERSNRIVVDEVYDAHQGTYVCDYTQSDTVSSWTVRAVVQVRTIVGDTKLKPDILDPVEDTLEVELGKPLTISCKARFGFERVFNPVIKWYIKDSDLEWEVSVPEAKSIKSTLKDEIIERNIILEKVTQRDLRRKFVCFVQNSIGNTTQSVQLKEKR , output reported kon.
97000 M⁻¹ s⁻¹
